assay: Transport studies across Calu-3 monolayers, compounds applied in solution (SLE, ALE), Papp; conditions: human, pH 7.4, Papp values for fluorescein, Air-liquid interface culture, 3 μm pores, n = 12
Reported Property: Papp at 120 min, 10 μg/ml (×10⁻⁶ cm/s)
Just the number in ×10⁻⁶ cm/s, nothing appended.

Papp at 120 min, 10 μg/ml recorded for this compound, O=C1OC2(c3ccc(O)cc3Oc3cc(O)ccc32)c2ccccc21 [Fluorescein, Sodium fluorescein] , is 0.27

----------
Listed below: Papp at 120 min values for each entry.
assay: Transport studies across Calu-3 monolayers, compounds applied in solution (SLE, ALE), Papp; conditions: human, pH 7.4, Papp, ALE (air-liquid interface culture, compound in buffer), n = 4
Just the number in ×10⁻⁶ cm/s, nothing appended.

{"Molecule": "O=C1OC2(c3ccc(O)cc3Oc3cc(O)ccc32)c2ccccc21 [Fluorescein, Sodium fluorescein]", "Measure Unit": "×10⁻⁶ cm/s", "Papp at 120 min": 0.27}

Here is another molecule to look at.
Papp at 120 min recorded for this molecule, COC(=O)c1ccccc1-c1c2ccc(=N)cc-2oc2cc(N)ccc12 , is 0.27

----------
experiment: Transport studies across Calu-3 monolayers, compounds applied in solution (SLE, ALE), Papp; conditions: human, pH 7.4, Papp values for fluorescein, Air-liquid interface culture, 0.4 μm pores, n = 12
Reported Property: Papp at 120 min, 10 μg/ml (×10⁻⁶ cm/s)
Just the number in ×10⁻⁶ cm/s, nothing appended.

Papp at 120 min, 10 μg/ml recorded for this compound, O=C1OC2(c3ccc(O)cc3Oc3cc(O)ccc32)c2ccccc21 [Fluorescein, Sodium fluorescein] , is 0.23

----------
Listed below: Papp at 120 min values for each entry.
test: Transport studies across Calu-3 monolayers, compounds applied in solution (SLE, ALE), Papp; conditions: human, pH 7.4, Papp, SLE (submersed culture, compound in buffer), n = 4
Just the number in nm/s, nothing appended.

Papp at 120 min recorded for this compound, CCCC1O[C@@H]2C[C@H]3[C@@H]4CCC5=CC(=O)C=C[C@]5(C)[C@H]4[C@@H](O)C[C@]3(C)[C@]2(C(=O)CO)O1 (stereo partly drawn) [Budesonide, budesonide] , is 132

Papp at 120 min recorded for this compound, O=C1OC2(c3ccc(O)cc3Oc3cc(O)ccc32)c2ccccc21 [Fluorescein, Sodium fluorescein] , is 0.9

Papp at 120 min recorded for this compound, COC(=O)c1ccccc1-c1c2ccc(=N)cc-2oc2cc(N)ccc12 , is 0.7
